Biological target: Nucleolin (NCL) (UniProt P19338 1-710)
Sequence (P19338 whole entry): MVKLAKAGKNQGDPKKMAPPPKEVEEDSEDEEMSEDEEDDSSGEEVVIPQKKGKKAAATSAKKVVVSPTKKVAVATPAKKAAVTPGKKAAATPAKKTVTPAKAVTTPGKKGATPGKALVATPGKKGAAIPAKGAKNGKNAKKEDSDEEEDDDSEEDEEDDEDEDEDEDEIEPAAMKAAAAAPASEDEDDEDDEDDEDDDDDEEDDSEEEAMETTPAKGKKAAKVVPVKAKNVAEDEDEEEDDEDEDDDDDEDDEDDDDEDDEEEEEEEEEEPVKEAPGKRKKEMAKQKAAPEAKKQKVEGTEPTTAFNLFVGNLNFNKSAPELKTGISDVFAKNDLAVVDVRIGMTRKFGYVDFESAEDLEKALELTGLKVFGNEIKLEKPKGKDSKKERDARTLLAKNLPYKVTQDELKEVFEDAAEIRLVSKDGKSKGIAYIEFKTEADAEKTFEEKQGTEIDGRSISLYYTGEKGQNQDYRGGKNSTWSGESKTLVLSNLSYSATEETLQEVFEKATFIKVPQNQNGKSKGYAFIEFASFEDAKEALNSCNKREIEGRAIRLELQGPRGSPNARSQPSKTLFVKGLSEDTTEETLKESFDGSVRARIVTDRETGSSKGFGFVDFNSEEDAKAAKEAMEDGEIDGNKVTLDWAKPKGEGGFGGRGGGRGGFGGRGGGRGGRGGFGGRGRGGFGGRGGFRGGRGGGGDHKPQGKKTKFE
Experiment: EMSA; complex I, NCL in excess; Kd taken as protein concentration retarding 50% of probe; 20 mM Tris-HCl pH 7.5, 50 mM KCl, 10% glycerol, 0.3 mg/mL BSA, 0.02% Nonidet P-40, 15 uL, 2 pmol 32P-RNA, 20 °C 30 min (competition: further 30 min); native 7%
Conditions: protein: recombinant; tags: His; hairpin (predicted, CGA 15-17 in loop)
pKd: −log10 of the molar value.
reported_metric: pKd

(Q) Which pKd is reported for this binder? AGGCGGCCCGGGUUCGACUAAAUGUGUGGGAA (structured_RNA) [M19-24]
(A) ~6.55
